# study.system: biotinylated human Gal-3 (hGal-3) (Homo sapiens)
# Sequence (P17931 whole entry): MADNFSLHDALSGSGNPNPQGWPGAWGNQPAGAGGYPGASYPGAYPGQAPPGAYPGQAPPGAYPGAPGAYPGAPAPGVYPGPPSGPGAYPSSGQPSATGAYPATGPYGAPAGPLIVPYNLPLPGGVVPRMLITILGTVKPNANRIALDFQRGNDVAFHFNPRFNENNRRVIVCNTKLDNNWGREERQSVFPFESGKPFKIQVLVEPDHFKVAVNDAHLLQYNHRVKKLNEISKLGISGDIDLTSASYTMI
# assay.protocol: Competitive binding assay: biotinylated hGal-3 binding to microplate-adsorbed asialofetuin (ASF), spectrophotometric
# test.context: Gal-3 inhibition, Table 14; read-out: IC50

compound: CCO[C@@H]1[C@@H](n2cc(-c3cc(F)c(F)c(F)c3)nn2)[C@@H](O)[C@@H](CO)O[C@H]1SC(C(=O)N1CCC(F)(F)CC1)C1(O)CCC(F)(F)CC1 (stereo partly shown)
study.system: biotinylated human Gal-3 (hGal-3) (Homo sapiens)
IC50: 100 nM

====

# study.system: UniProt:P17931
# assay.protocol: Competitive binding assay: biotinylated hGal-3 binding to microplate-adsorbed asialofetuin (ASF), spectrophotometric
# test.context: Table 8; hGal-3; read-out: IC50 (Gal-3 inhibition)
pIC50: −log10 of the molar value.
pIC50 reference

molecule: CCN(C)C(=O)[C@H](S[C@@H]1O[C@H](CO)[C@H](O)[C@H](n2cc(-c3cc(F)c(F)c(F)c3)nn2)[C@H]1O)C1(O)CCN(S(C)(=O)=O)CC1 [Example 2.47.203R.]
pIC50: 5.17
//
molecule: CCN(C)C(=O)[C@@H](S[C@@H]1O[C@H](CO)[C@H](O)[C@H](n2cc(-c3cc(F)c(F)c(F)c3)nn2)[C@H]1O)C1(O)CCN(S(=O)(=O)C2CC2)CC1 [Example 2.51.203S.]
pIC50: 7.70
//
molecule: CCN(C)C(=O)[C@H](S[C@@H]1O[C@H](CO)[C@H](O)[C@H](n2cc(-c3cc(F)c(F)c(F)c3)nn2)[C@H]1O)C1(O)CCN(S(=O)(=O)C2CC2)CC1 [Example 2.51.203R.]
pIC50: 5.30

Numbers sourced from patent US12410208B2.
